Hey, just so you know, these numbers are from PubChem BioAssay AID182.

# System: BDF1 mice, P388/ADR leukemia ip, median survival T/C
# Experiment summary: NCI In Vivo Anticancer Drug Screen. Data for tumor model P388 Leukemia resistant to Adriamycin; NSC 123127, Developed at Scr 06 and 41 (intraperitoneal) in B6D2F1 (BDF1) mice
# Measurement setup: endpoint: median survival time; dose: 30.0 mg/kg/injection; schedule: Q04DX003 (ip); vehicle: saline
Inconclusive results and toxic doses are left out. The calls were made as follows: active = survival T/C of 150% or more; inactive = T/C below 125% in these data.
Classes to choose from: Yes for active, No for inactive

Recorded call for Nc1ncn(C2OC(CO)C(O)C2O)c(=O)n1 (centres undefined) ?
No

Recorded call for `CCC1=C(C[C@H]2NCCc3cc(OC)c(OC)cc32)C[C@H]2c3cc(OC)c(OC)cc3CCN2C1` ?
No

Recorded call for COc1cccc2c1C(=O)c1c(O)c3c(c(O)c1C2=O)CC(O)(C(=O)CO)CC3OC1CC(N)C(O)C(C)O1 (centres undefined) ?
No

Recorded call for `CC[C@](O)(C(=O)O)c1cc2n(c(=O)c1CO)Cc1cc3ccccc3nc1-2` ?
Yes
